target: FV-810 (FV-DT), Factor V with amino acids 811-1491 deleted from the B-domain (human) (UniProt P12259); test: fluorescence anisotropy displacement of OG488-BR; 30 nM OG488-BR, 20 nM FV-810, 50 uM PCPS; stoichiometry of 1 assumed
Sequence (P12259 other isoform, or with tags, fused parts or gaps, form in doubt): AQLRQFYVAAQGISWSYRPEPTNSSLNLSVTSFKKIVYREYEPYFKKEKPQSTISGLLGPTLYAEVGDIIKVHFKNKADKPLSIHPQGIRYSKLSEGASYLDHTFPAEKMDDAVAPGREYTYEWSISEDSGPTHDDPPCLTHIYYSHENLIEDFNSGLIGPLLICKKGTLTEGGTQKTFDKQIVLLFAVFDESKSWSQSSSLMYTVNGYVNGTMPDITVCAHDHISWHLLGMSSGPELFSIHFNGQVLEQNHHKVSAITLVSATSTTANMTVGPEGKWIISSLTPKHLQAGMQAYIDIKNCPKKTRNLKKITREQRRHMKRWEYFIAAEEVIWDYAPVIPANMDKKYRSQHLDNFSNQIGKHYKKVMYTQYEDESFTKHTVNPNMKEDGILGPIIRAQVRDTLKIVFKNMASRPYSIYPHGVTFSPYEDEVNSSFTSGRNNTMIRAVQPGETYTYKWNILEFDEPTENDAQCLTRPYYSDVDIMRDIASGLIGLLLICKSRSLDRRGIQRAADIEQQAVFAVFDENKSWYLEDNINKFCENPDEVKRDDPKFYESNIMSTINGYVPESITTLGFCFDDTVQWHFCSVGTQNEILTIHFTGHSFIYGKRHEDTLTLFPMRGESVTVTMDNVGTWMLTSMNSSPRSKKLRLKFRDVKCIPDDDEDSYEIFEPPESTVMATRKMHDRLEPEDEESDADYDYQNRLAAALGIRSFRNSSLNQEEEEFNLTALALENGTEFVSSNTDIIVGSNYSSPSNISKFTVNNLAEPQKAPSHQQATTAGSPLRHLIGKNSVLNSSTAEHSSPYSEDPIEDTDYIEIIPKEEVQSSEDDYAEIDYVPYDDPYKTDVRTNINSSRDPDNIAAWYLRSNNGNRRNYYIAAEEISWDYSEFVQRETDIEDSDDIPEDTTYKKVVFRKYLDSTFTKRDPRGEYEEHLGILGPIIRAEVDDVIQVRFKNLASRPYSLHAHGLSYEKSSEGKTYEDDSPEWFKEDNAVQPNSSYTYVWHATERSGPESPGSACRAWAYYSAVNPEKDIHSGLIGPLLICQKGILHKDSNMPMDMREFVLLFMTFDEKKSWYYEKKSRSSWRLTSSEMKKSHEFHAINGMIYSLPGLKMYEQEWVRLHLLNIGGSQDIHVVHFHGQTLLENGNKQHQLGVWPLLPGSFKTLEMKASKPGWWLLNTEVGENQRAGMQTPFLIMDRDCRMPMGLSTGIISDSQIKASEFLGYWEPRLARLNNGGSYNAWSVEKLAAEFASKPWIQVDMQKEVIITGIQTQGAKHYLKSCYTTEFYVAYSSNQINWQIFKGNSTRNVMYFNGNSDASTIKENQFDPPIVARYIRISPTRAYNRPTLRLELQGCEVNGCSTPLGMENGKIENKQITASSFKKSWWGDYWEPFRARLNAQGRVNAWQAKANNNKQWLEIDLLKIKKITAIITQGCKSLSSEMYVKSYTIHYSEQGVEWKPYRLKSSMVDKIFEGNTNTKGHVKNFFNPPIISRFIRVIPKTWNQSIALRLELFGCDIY
READOUT LABEL: pKd
Recall that pKd is obtained by taking minus log10 of the concentration measured in molar.

query: Quick check: pKd of Bovine BR (Bos taurus Ser938-Lys996) (peptide, UniProt Q28107 966-1024, looked up) peptide: SRTWGENIPFKNSHGKQSGHPTFLVTRRKPLQDRQDRRNSRLKEGLPLIRTRRKKKEEK ?
result: 7.55
